biological target: T1, Cyclophilin 40 (human; pDEST14-6H-TEV-hCyp40) (human, UniProt Q08752 1-370); test: ITC; 500 uM SRMEEVD titrated into 7.7 uM Cyp40 in 15 x 2.5 ul aliquots; 50 mM Hepes pH 8, 100 mM sodium chloride, 1 mM DTT; 1:1 binding model; 30 °C (highest attainable temperature); conditions: both partners purified
T1 construct: Cyclophilin 40 (Cyp40, PPID), human; construct pDEST14-6H-TEV-hCyp40; Monomeric by dynamic light scattering; also called PPID; source: E. coli BL21 star (DE3), purified (IMAC, gel filtration on Superdex 200)
T1 sequence (Q08752 whole entry): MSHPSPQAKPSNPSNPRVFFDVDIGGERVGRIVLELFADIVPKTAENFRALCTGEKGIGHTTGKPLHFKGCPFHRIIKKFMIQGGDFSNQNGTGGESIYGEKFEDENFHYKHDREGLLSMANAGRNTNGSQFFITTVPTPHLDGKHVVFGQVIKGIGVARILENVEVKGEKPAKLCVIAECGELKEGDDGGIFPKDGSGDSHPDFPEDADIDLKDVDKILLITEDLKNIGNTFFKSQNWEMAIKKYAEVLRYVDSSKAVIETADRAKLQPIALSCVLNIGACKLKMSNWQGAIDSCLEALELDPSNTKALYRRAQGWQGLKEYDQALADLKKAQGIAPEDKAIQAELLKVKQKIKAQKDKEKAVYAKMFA
pKd: −log10 of the molar value.

>  <Binder>
SRMEEVD (also called Hsp90 peptide; Hsp90 wt) [SRMEEVD peptide (Hsp90 wild-type C-terminal peptide)]

>  <pKd>
~4.60

$$$$

The reported measurements were obtained from paper PMC4721547.
